The compounds listed here are annotated with their IC50.
Target: IRK (Homo sapiens, UniProt P06213)
Construct: 6×His- or GST-tagged kinase domain fragments of the corresponding RTKs expressed in baculovirus system; host or cells: baculovirus system
Sequence (P06213 1023-1298 limits assumed): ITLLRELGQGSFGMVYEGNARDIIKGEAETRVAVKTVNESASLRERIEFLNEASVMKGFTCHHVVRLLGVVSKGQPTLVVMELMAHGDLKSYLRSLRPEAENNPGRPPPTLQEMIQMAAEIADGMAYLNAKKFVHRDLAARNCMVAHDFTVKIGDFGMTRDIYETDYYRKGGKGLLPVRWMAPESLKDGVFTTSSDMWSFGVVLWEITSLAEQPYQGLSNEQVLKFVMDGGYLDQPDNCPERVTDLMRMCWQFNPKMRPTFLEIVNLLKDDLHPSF
Assay: IRK (insulin receptor kinase) assay
Type: biochemical
Settings: Table 1; read-out: IRK IC50

// solved cases for IC50 follow
- C[C@@H](Cc1cccs1)Nc1cc[nH]c(=O)c1-c1nc2cc3c(cc2[nH]1)C(=O)N(CCCN(C)C)C3: 0.1 to 0.25 µM
- CN1CCC(N2C(=O)c3cc4nc(-c5c(N[C@@H](CO)Cc6ccccc6)cc[nH]c5=O)[nH]c4cc3C2=O)CC1: > 1 µM
- Cc1ccc(C(F)(F)F)cc1C[C@H](C)Nc1cc[nH]c(=O)c1-c1nc2cc3c(cc2[nH]1)CN(CCN1CCCC1)C3=O: 0.25 to 1 µM
- C[C@@H](Cc1c(F)c(F)cc(F)c1F)Nc1cc[nH]c(=O)c1-c1nc2cc3c(cc2[nH]1)CN(CCN1CCCC1)C3=O [drawing 345]: 0.25 to 1 µM
- C[C@@H]1CCCN1CCN1Cc2cc3[nH]c(-c4c(N[C@@H](C)Cc5cc(F)cc(F)c5F)cc[nH]c4=O)nc3cc2C1=O [drawing 340]: 0.25 to 1 µM
- C[C@@H](Cc1sccc1Cl)Nc1cc[nH]c(=O)c1-c1nc2cc3c(cc2[nH]1)CN(CCN1CCCC1)C3=O: 0.1 to 0.25 µM

Ask | Entry under review: "Cc1cccc(C)c1C[C@H](C)Nc1cc[nH]c(=O)c1-c1nc2cc3c(cc2[nH]1)C(=O)N(CCN1CCCC1)C3" . Reported IC50?
Reply | > 1 µM

Ask | Entry under review: "COc1ccc(OC)c(C[C@H](C)Nc2cc[nH]c(=O)c2-c2nc3cc4c(cc3[nH]2)CN(CCN2CCCC2)C4=O)c1" . Reported IC50?
Reply | 0.25 to 1 µM

====

The compounds listed here are annotated with their pIC50.
Target: ALK (Homo sapiens)
Sequence (Q9UM73 with tags, fused parts or gaps): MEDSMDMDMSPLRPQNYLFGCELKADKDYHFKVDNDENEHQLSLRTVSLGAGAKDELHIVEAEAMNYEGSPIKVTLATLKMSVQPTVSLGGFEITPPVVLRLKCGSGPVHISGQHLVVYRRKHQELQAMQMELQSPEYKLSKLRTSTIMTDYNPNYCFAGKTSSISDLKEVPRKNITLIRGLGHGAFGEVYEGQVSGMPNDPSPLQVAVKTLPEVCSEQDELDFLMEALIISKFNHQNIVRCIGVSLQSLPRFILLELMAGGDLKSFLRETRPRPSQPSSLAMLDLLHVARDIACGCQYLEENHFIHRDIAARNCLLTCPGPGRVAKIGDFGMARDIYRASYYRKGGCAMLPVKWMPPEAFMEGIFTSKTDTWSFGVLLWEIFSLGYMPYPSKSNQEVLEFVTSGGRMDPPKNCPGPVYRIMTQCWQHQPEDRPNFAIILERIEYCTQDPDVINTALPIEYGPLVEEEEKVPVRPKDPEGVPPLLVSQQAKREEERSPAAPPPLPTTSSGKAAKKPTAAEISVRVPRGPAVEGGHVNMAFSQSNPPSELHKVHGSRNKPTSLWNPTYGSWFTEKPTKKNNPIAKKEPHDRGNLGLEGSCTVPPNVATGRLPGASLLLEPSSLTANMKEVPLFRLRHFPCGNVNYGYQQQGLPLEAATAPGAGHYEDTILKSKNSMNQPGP
Assay: ALK kinase assay (Kinase-Glo / AlphaScreen, purified NPM-ALK);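 also: recombinant baculovirus-expressed ALK kinase domain, activity read either as leftover ATP by Kinase-Glo luminescence or as poly(Glu-Tyr) phosphorylation by anti-phosphotyrosine AlphaScreen proximity signal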
Type: biochemical
Design: fused to the complete intracytoplasmic portion of ALK containing the functional tyrosine kinase domain; 6xHis; made in house; host or cells: insect cells; the other entry of the earlier key: NPM1 (P06748, Nucleophosmin)
Details: Table 1; read-out: ALK IC50
pIC50: −log10 of the molar value.

- C[C@@H](Cc1sccc1C(F)(F)F)Nc1cc[nH]c(=O)c1-c1nc2cc3c(cc2[nH]1)CN(CCN1CCCC1)C3=O: 7.00 to 8.00
- C[C@@H](Cc1ccco1)Nc1cc[nH]c(=O)c1-c1nc2cc3c(cc2[nH]1)C(=O)N(CCN1CCCC1)C3=O: 6.60 to 7.00

Ask | Entry under review: "C[C@@H](Cc1sccc1Cl)Nc1cc[nH]c(=O)c1-c1nc2cc3c(cc2[nH]1)C(=O)N(C[C@H](C)N(C)C)C3" . Reported pIC50?
Reply | > 8.00

Ask | Entry under review: "C[C@@H](Cc1sccc1Cl)Nc1cc[nH]c(=O)c1-c1nc2cc3c(cc2[nH]1)C(=O)N([C@@H](C)CN(C)C)C3=O" . Reported pIC50?
Reply | 7.00 to 8.00

Ask | Entry under review: "COc1ccc(F)cc1C[C@H](C)Nc1cc[nH]c(=O)c1-c1nc2cc3c(cc2[nH]1)CN(CCN(C)C)C3=O" . Reported pIC50?
Reply | 7.00 to 8.00

Ask | Entry under review: Cc1ccc(CC(C)Nc2cc[nH]c(=O)c2-c2nc3cc4c(cc3[nH]2)C(=O)N(CCCN2CCCC2)C4)s1 (stereo not shown) . Reported pIC50?
Reply | < 6.00

Ask | Entry under review: C[C@@H](Cc1cccs1)Nc1cc[nH]c(=O)c1-c1nc2cc3c(cc2[nH]1)C(=O)N(CCCN1CCCC1)C3 [drawing 259] . Reported pIC50?
Reply | 6.60 to 7.00
